Give measured IC50 for each item. Keep answers brief.
- Target Entity: JAK2 kinase (Homo sapiens (Human), UniProt O60674)
- Sequence (O60674 whole entry): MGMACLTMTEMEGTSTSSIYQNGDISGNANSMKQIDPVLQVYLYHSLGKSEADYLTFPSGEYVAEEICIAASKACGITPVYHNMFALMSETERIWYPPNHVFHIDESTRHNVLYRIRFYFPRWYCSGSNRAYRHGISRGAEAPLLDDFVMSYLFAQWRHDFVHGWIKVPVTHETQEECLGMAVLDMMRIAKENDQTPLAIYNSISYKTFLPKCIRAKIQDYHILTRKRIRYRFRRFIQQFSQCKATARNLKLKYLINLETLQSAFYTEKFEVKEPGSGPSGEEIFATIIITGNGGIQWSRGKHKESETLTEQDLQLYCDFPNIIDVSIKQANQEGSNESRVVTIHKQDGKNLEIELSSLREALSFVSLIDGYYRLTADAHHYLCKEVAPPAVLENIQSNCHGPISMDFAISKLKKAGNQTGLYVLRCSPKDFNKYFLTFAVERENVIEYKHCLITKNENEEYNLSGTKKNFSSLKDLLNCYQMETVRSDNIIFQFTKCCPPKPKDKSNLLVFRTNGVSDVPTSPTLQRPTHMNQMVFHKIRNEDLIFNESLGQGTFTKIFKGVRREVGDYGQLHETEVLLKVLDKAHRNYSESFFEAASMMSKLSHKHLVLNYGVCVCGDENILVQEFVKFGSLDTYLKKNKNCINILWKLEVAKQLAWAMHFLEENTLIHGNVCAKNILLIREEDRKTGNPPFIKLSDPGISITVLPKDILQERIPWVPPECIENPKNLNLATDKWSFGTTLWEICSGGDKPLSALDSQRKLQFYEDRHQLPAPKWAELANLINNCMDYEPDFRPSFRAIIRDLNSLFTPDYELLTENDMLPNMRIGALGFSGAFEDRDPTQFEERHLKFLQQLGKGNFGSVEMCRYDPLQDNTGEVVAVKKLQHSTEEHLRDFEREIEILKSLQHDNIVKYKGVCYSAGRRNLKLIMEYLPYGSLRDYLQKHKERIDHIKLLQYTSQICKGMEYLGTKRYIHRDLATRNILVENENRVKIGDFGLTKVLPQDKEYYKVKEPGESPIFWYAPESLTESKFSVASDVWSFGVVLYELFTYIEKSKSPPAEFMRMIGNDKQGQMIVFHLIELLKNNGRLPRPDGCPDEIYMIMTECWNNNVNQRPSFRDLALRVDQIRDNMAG
- Method Description: HTRF assay for inhibitory activity (IC50) against JAK2 kinase
- Type: biochemical
- Condition Details: ATP 5 μM, kinase 0.05 nM

// each listed compound needs a value for IC50
1. NC(=O)c1c(N)nn2ccc(N3C[C@@H](F)C[C@@H]3c3cc(F)ccc3F)nc12
2. Nc1nn2ccc(N3CCC[C@@H]3c3cc(F)ccc3F)nc2c1C(=O)N[C@H]1CC[C@H](O)CC1

["> 0.1 µM", "> 0.02 µM"]

// each listed compound needs a value for IC50
1. NC(=O)c1c(N)nn2ccc(N3CCC[C@@H]3c3cc(F)ccc3F)nc12
2. CNC(=O)c1c(N)nn2ccc(N3C[C@@H](F)C[C@@H]3c3cc(F)ccc3F)nc12

1: > 2 µM; 2: > 0.01 µM
